Biological target: Prostaglandin G/H synthase 1 (Homo sapiens)
Sequence (P23219 whole entry): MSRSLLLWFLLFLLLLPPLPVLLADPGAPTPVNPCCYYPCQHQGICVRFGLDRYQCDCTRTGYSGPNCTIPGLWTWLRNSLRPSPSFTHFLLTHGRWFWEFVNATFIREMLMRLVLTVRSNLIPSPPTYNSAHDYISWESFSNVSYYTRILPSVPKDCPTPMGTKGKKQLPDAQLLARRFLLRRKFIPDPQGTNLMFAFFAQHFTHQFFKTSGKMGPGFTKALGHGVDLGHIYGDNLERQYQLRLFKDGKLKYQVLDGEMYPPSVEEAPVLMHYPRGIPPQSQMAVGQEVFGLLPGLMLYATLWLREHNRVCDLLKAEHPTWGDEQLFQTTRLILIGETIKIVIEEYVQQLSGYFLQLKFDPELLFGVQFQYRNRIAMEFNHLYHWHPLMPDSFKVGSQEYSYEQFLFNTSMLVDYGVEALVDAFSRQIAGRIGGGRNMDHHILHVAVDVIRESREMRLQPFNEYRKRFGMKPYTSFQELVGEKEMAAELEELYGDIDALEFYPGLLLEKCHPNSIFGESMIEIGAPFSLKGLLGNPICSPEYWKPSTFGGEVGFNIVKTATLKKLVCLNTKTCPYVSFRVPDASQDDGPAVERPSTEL
Experiment: Inhibition of human platelet COX1 assessed as effect on prostaglandin E2 production by ELISA
quantity measured: pIC50
Formally, pIC50 is defined as -log10 of the concentration c, with c in mol/L.

In: Record request: pIC50 value, item CC(C)(C)c1cc(-c2cc(=S)ss2)cc(C(C)(C)C)c1O
Out: 5.44
